Biological target: T1, human HER1 Extracellular Domain (HER1 ECD) (human, UniProt P00533 25-645)
T1 construct: also called EGFR ECD
Assay: ELISA, antigen coated, hybridoma supernatant
measured.quantity: OD 405 nm (OD)
Record the value in OD, omitting the unit from your answer.

Look at this binder and give its reported OD 405 nm. anti-HER3 antibody M-08-11 (antibody, V domains shown, mouse monoclonal antibody from hybridoma, tested as hybridoma supernatant or as antibody; also called M-011) VH: QAYLQQSGAELMRPGASVRMSCQASGYTFTSYTIHWLKQTPRQGLEWIGAIYPRNGDFSYNQKFKDKASLTVDTSSSTAYMHLSSLTSEDSAVYFCARTINYGDWFAYWGQGTLVTVSA VL: DIQMIQSPASLFVSEGETVIITCRASENIYSNLAWYHQKKGKSPQVLVYAAIKLADGVPLRFSGSGSGTQFSLKINSLQSEDFGSYYCQHFWGPPYTFGSGTNLEIK
0.06

Consider the binder shown here: anti-HER3 antibody M-17-12 (antibody, V domains shown, mouse hybridoma clone; VH and VL stated identical to those of M-17-02) VH: EVQLQQSGTVLARPGASVKMSCKASGYSFTSYWIHWVKQRPGQGLEWIGAIYPGNSDTTYNQKFKGKAKLTAVTSASTAYMELSSLTNEDSAVYYCARTGVWTSYYFDYWGQGTTLTVSS VL: DIQMTQSPASLSASVGETVTITCRASENIYSNLAWYQQKQGKSPQLLVYAATNLADGVPSRFSGSGSGTQFSLRINSLQPEDFGSYYCQHFYGTPFTFGTGTKLEIK What is its recorded OD 405 nm?
0.022

Could you share which OD 405 nm value was measured for anti-HER3 antibody M-46-01 (antibody, V domains shown, mouse hybridoma clone) VH: QIQLQQSGPQLVRPGASVKISCKASGYSFTSYWMHWVKQRPGRGLEWIGMIDPSDGVTRLNQKFKDKATLTVDNSSSTAYMQLSSPTSEDSAVHYCARVDVLYWYFDVWGAGTTVTVSS VL: DIVLTQSPASLAVSLGQRATISCRASKSISISGYSYMHWYQQKAGQPPKLLIYLTSNLESGVPARFSGSGSGTDFTLNIHPVEEEDAATYYCHHSRELPFTFGSGTKLEIK ?
0.043
